These entries and their values trace back to PubChem BioAssay (NCI).

Measured TGI by item
# Test system: HCC-2998 colon
# test_name: NCI tumour cell line growth inhibition, 48 h
Where a SMILES comes first, the peptide text is derived from it. The star is where a group is joined. Boc = CC(C)(C)OC(=O)*

Solved entries:
Looking for the measured TGI of Cc1cc(Br)cc(C)c1NC(=O)C(=O)C1C(=O)C(CC2C(=O)c3ccccc3C2=O)C(=O)CC1(C)C (stereo not drawn) , can you help? > 100 µM

Field request: TGI | item: CNCCOc1nc2c3cnccc3cc(-c3cc(OC)c(OC)c(OC)c3)c2c2ccncc12 0.213 µM

TGI for CCOC(=O)C(CC(C)C)NC(=O)C(Cc1ccccc1)NC(=O)CNC(=O)OC(C)(C)C (stereo not drawn) (Boc-Gly-Phe-Leu-OEt; configuration not given here) ? 37.2 µM

Form field: reported TGI of CC12C(=O)N(CCN)C(=O)C1C1c3ccccc3C2c2ccccc21 (stereo not drawn) > 100 µM

Recorded TGI of O=c1cc(-c2ccccc2Cl)[nH]c2cc3c(cc12)OCO3 , please. 0.496 µM

Given the molecule O=C(Nc1ccc(S(=O)(=O)NC2CCCCCC2)cc1)C(c1ccccc1)S(=O)(=O)c1ccc(F)cc1 (stereo not drawn) , what is its reported TGI? 2.35 µM

Need TGI of CCOC(=O)C(Cc1cn(S(=O)(=O)c2ccc(C)cc2)cn1)P(=O)(OCC)OCC (stereo not drawn) , thanks. > 100 µM

***
// query TGI value for entry NCCc1ccc2c(c1)C(=O)c1c(O)ccc(O)c1C2=O > 100 µM
